src = PubChem BioAssay AID192

- Tested on: BDF1 mice, B16 melanoma ip, median survival T/C
- test protocol: NCI In Vivo Anticancer Drug Screen. Data for tumor model B16 Melanoma (intraperitoneal) in B6D2F1 (BDF1) mice
- particulars: endpoint: median survival time; dose: 0.75 mg/kg/injection; schedule: Q01DX009 (ip); vehicle: Klucel (hydroxypropylcellulose) (HPC)
Toxic doses and inconclusive results are not listed. Rule for the calls: active = survival T/C of 150% or more; inactive = T/C below 125% in these data.
Possible outcomes: active, inactive

[
  {
    "compound": "Cc1ccc2c(c1)CC(C)([CH2][Hg][Cl])O2 (centres undefined)",
    "class": "inactive"
  },
  {
    "compound": "CCCCCC[N+](CCCCCC)(CCCCCC)CCCCCC",
    "class": "inactive"
  },
  {
    "compound": "[CH3][Sn]([CH3])([CH3])[S]C(=S)N1CCOCC1",
    "class": "inactive"
  },
  {
    "compound": "N[C@@H](Cc1ccc(N(CCCl)CCCl)cc1)C(=O)O",
    "class": "active"
  }
]
